Cited source for all entries: patent US20080090805A1

system-name: CB1 (mutant) (Homo sapiens, UniProt P21554)
Sequence (P21554 1-417, change not shown): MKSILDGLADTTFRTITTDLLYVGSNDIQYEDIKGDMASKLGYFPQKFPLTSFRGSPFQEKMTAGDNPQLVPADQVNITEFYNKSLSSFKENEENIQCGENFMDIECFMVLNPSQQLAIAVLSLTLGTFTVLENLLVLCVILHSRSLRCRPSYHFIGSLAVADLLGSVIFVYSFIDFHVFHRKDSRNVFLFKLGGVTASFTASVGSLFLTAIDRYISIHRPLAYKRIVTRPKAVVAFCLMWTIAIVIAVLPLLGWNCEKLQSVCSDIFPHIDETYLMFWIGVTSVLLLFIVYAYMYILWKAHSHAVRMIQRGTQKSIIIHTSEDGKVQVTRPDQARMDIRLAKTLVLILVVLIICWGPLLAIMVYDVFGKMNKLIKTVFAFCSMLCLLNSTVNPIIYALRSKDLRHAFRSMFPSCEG
procedure-summary: R-SAT functional receptor assay, CB1 (mutant, truncated after amino acid 417)
Type: cell-based
measurement-parameters: Appendix A; R-SAT CB1; receptor form (mutant or wild-type) not stated; read-out: pIC50 (converted)
measure-name: log10 of IC50 (log10 of the value in nM)

                                    compound   measure_name  assay_result
 0  O=C(NN1CCOCC1)c1ccc2c(c1)N=C(c1cccc(Cl)c1)c1ccccc1S2  log10 of IC50          1.90
 1  O=C(NCc1ccncc1)c1ccc2c(c1)N=C(c1cccc(Br)c1)c1ccccc1S2 [drawing 977]  log10 of IC50          1.30
 2  CCCCC1=Nc2cc(C(=O)NN3CCCCC3)ccc2Sc2ccccc21  log10 of IC50          2.50
 3  O=C(NCCc1cccnc1)c1ccc2c(c1)N=C(c1ccc(Cl)cc1Cl)c1ccccc1S2  log10 of IC50          2.30
 4  CCCNC(=O)c1ccc2c(c1)N=C(c1ccccn1)c1ccccc1S2  log10 of IC50          1.60
 5  CCCC1=Nc2cc(C(=O)N3CCN(C(=O)c4ccco4)CC3)ccc2Sc2ccccc21  log10 of IC50          3.40
 6  O=C(NCCc1ccc(Cl)cc1)c1ccc2c(c1)N=C(c1ccc(Cl)cc1)c1ccccc1S2 [drawing 631]  log10 of IC50          0.70
 7  CC(NC(=O)c1ccc2c(c1)N=C(c1ccccc1)c1ccccc1S2)c1ccccc1 (stereo not drawn) [drawing 1147]  log10 of IC50          1.60
 8  Cc1csc(CNC(=O)c2ccc3c(c2)N=C(c2sccc2C)c2ccccc2S3)c1 [drawing 661]  log10 of IC50          0.80
 9  Cc1cnc(-c2ccc3c(c2)N=C(c2ccc(Cl)cc2)c2ccccc2S3)[nH]1 [drawing 872]  log10 of IC50          2.30
10  CCCC1=Nc2cc(C(=O)NCc3ccccc3Cl)ccc2Sc2ccccc21 [drawing 791]  log10 of IC50          1.00
11  CC(C)CNC(=O)c1ccc2c(c1)N=C(c1ccccn1)c1ccccc1S2 [drawing 1021]  log10 of IC50          1.40
12  NS(=O)(=O)c1ccc(CNC(=O)C2C=C3N=C(N4CCCCC4)c4ccccc4SC3=CC2)cc1 (stereo not drawn)  log10 of IC50          2.60
13  O=C(NN1CCCCC1)c1ccc2c(c1)N=C(N1CCCCC1)c1ccccc1S2 [drawing 610]  log10 of IC50          1.70
14  CCOCCNC(=O)c1ccc2c(c1)N=C(c1ccc(C#N)cc1)c1ccccc1S2 [drawing 788]  log10 of IC50          2.00
15  CC(C)NC(=O)c1ccc2c(c1)N=C(c1cccc(F)c1)c1ccccc1S2 [drawing 1155]  log10 of IC50          1.60
16  CCCCNC(=O)c1ccc2c(c1)N=C(c1ccc(Cl)c(F)c1)c1ccccc1S2 [drawing 769]  log10 of IC50          1.00
17  CCCC1=Nc2cc(C(=O)N3CCC(C(=O)OCC)CC3)ccc2Sc2ccccc21  log10 of IC50          2.30
18  CCCC1=Nc2cc(C(=O)NC(C)CCN(C)C(=O)OCC)ccc2Sc2ccc(C)cc21 (stereo not drawn)  log10 of IC50          3.00
19  O=C(NCCc1ccccn1)c1ccc2c(c1)N=C(c1ccc(Cl)cc1)c1ccccc1S2 [drawing 1005]  log10 of IC50          1.40
20  CCCCNC(=O)c1ccc2c(c1)N=C(c1cccc(F)c1)c1ccccc1S2 [drawing 719]  log10 of IC50          0.90
21    CCCNC(=O)c1ccc2c(c1)N=C(CCC)c1ccccc1S2  log10 of IC50          1.50
22  O=C(NCc1ccccc1Cl)c1ccc2c(c1)N=C(c1ccccc1)c1ccccc1S2 [drawing 594]  log10 of IC50          1.70
23  O=C(NCCc1ccc(Cl)cc1)c1ccc2c(c1)N=C(N1CCCCC1)c1ccccc1S2 [drawing 775]  log10 of IC50          1.00
24  O=C(NN1CCCC1)c1ccc2c(c1)N=C(c1ccc(Cl)cc1)c1ccccc1S2 [drawing 698]  log10 of IC50          1.90
25  Cc1ccsc1C1=Nc2cc(C(=O)NCCC(C)C)ccc2Sc2ccccc21 [drawing 945]  log10 of IC50          1.30
26  CCCC1=Nc2cc(C(=O)NCc3ccco3)ccc2Sc2ccccc21  log10 of IC50          1.50
27  CCCCNC(=O)c1ccc2c(c1)N=C(c1ccc(Cl)cc1)c1sccc1S2 [drawing 657]  log10 of IC50          0.80
28  CCCC1=Nc2cc(C(=O)NCc3ccc4c(c3)OCO4)ccc2Sc2ccc(C)cc21  log10 of IC50          3.20
29  CCCCNC(=O)c1ccc2c(c1)N=C(c1cccc(Cl)c1)c1cc(Cl)ccc1S2 [drawing 997]  log10 of IC50          1.40
30  CCCC1=Nc2cc(C(=O)NCCCOC(C)C)ccc2Sc2ccccc21  log10 of IC50          1.80
31  COCCNC(=O)c1ccc2c(c1)N=C(c1ccc(Cl)cc1F)c1ccccc1S2  log10 of IC50          1.80
32  O=C(NCc1ccccn1)c1ccc2c(c1)N=C(N1CCCCC1)c1ccccc1S2  log10 of IC50          2.20
33  CCCC1=Nc2cc(C(=O)N3CCN(c4ccc(F)cc4)CC3)ccc2Sc2ccccc21  log10 of IC50          2.40
34  O=C(NCCc1ccc(Cl)cc1)c1ccc2c(c1)N=C(c1cccc(Cl)c1)c1ccccc1S2 [drawing 569]  log10 of IC50          0.40
35  CC(NC(=O)c1ccc2c(c1)N=C(c1ccc(F)cc1)c1ccccc1S2)c1ccccc1 (stereo not drawn) [drawing 760]  log10 of IC50          2.00
